This listing pairs molecules with measured IC50.
Target: Chk1 (Homo sapiens, UniProt O14757)
Sequence (O14757 1-476): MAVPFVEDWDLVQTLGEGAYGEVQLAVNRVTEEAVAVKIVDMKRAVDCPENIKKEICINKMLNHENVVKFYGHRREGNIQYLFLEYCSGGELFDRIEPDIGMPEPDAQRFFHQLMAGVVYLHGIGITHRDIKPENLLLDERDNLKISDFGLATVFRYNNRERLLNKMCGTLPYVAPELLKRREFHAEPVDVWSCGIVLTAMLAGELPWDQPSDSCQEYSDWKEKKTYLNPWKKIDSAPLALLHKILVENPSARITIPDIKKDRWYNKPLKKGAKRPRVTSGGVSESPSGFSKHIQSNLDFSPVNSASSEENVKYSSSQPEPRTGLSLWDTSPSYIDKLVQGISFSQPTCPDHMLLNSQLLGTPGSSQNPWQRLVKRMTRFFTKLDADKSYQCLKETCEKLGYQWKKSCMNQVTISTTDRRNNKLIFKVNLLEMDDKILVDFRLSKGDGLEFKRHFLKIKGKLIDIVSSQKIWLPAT
Reported metric: IC50 (nM)

{"Molecule": "C[C@]12O[C@H](C[C@H](O)[C@H]1O)n1c3ccccc3c3c4c(c5c6ccccc6n2c5c31)C(=O)NC4=O", "Sign qualifier": "=", "Result value": 4.9}
{"Molecule": "C[C@]12O[C@H]([C@H](O)[C@H](O)[C@H]1O)n1c3ccccc3c3c4c(c5c6ccccc6n2c5c31)CNC4=O [formula (XVI), N^12-5′(S)-N^13-1′-(R)-L-rhamnosyl-k252c]", "Sign qualifier": "=", "Result value": 2.4}
{"Molecule": "C[C@]12O[C@H](C[C@@H](O)[C@H]1O)n1c3ccccc3c3c4c(c5c6ccccc6n2c5c31)CNC4=O", "Sign qualifier": ">", "Result value": 10}
